# tested target: μ opioid receptor (Homo sapiens, UniProt P35372)
# Construct: expressed in transfected cells; host or cells: CHO cells (membranes)
# Sequence (P35372 whole entry, species assumed): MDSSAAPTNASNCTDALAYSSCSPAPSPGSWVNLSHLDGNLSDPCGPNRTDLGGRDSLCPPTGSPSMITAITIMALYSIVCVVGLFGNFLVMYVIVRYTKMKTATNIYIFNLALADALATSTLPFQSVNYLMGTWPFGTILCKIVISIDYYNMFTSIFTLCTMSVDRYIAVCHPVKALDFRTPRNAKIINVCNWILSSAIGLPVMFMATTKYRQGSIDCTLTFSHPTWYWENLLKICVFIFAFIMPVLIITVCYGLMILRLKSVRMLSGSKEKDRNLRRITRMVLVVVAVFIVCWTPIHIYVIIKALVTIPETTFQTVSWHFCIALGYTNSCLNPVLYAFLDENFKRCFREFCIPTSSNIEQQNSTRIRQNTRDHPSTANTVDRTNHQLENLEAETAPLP
# assay name: Competition binding assay on membranes of CHO cells expressing μ opioid receptor, [3H]-labeled ligand
# applied conditions: Table 3-1; read-out: μOR Ki
property: pKi
Give bare numbers, as −log10 of the molar value.

> print(dat)
                                   compound  assay.result
1  COc1cccc(C2(O)CCN(C(=O)Nc3cccc(Cl)c3)CC2CN(C)C)c1.Cl (centres unmarked) [FWBF2, hydrochloride]          7.85

As a next step, examine the compound that follows.
What value of measured pKi is listed for COc1cccc(C2(O)CCN(C(=O)Nc3ccccc3)CC2CN(C)C)c1.Cl (centres unmarked) [FWBF1, hydrochloride] ?
8.14

---

# tested target: μ opioid receptor (Homo sapiens)
# Construct: expressed in transfected cells; host or cells: CHO cells (membranes)
# assay name: Competition binding assay on membranes of CHO cells expressing μ opioid receptor, [3H]-labeled ligand
# applied conditions: Table 3-1; 1 μM concentration of compounds; read-out: μOR Binding rate (%)
Counter-ions that a name gives are not always drawn.
Decide by inhibition at 1 µM: equal to or exceeding 20% means t, less means f.

> print(dat)
                                   molecule  group
1  COc1cccc(C2(O)CCN(C(=O)NCc3ccccc3)CC2CN(C)C)c1 (stereo not drawn) [FWBF12, hydrochloride]      t
2  COC(=O)c1sccc1NC(=O)N1CCC(O)(c2cccc(OC)c2)C(CN(C)C)C1 (stereo not drawn) [FWBF17, hydrochloride]      f
3  COc1cccc(C2(O)CCN(C(=O)Nc3cccs3)CC2CN(C)C)c1 (stereo not drawn) [FWBF19, hydrochloride]      f
4  COc1cccc(C2(O)CCN(C(=O)Nc3ccc(F)c(Cl)c3)CC2CN(C)C)c1 (stereo not drawn) [FWBF9, hydrochloride]      t
5  COc1cccc(C2(O)CCN(C(=O)NC(C)C34CC5CC(CC(C5)C3)C4)CC2CN(C)C)c1.Cl (stereo not drawn) [FWBF15, hydrochloride]      t

Hi, just wondering whether COc1cccc(C2(O)CCN(C(=O)Nc3ccc4ccccc4c3)CC2CN(C)C)c1 (stereo not drawn) [FWBF11, hydrochloride] shows inhibition at 1 µM of 20% or higher.
f

---

# tested target: δ opioid receptor (Homo sapiens)
# Construct: expressed in transfected cells; host or cells: CHO cells (membranes)
# Sequence (P41143 whole entry): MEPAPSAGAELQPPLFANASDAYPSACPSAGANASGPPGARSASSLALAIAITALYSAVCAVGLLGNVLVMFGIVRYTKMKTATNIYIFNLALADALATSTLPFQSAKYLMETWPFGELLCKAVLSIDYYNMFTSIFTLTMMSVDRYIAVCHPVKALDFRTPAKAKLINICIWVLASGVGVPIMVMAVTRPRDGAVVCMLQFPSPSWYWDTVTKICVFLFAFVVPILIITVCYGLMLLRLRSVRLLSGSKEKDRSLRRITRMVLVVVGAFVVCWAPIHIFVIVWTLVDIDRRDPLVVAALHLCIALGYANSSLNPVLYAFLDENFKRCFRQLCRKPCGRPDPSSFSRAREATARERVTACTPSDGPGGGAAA
# assay name: Competition binding assay on membranes of CHO cells expressing δ opioid receptor, [3H]-labeled ligand
# applied conditions: 0.5 h; Table 2-1; 1 μM concentration of compound; read-out: δOR Binding rate (%)
Structures can show the parent of a compound that is named as a salt.
property: inhibition at 1 µM (%)
Answers are plain numbers, in %.

Example results:
> print(dat)
                                   molecule            property  display.unit  assay.result
1  COc1cccc(C2(O)CCN(S(=O)(=O)C[C@]34CC[C@H](CC3O)C4(C)C)CC2CN(C)C)c1 (stereo partly drawn) [FWBH27, hydrochloride]  inhibition at 1 µM             %          24.8
2  C=CCS(=O)(=O)N1CCC(O)(c2cccc(OC)c2)C(CN(C)C)C1.Cl (stereo not drawn) [FWBH21, hydrochloride]  inhibition at 1 µM             %          31.5
3  CCS(=O)(=O)N1CCC(O)(c2cccc(OC)c2)C(CN(C)C)C1.Cl (stereo not drawn) [FWBH18, hydrochloride]  inhibition at 1 µM             %            24
4  COc1cccc(C2(O)CCN(S(=O)(=O)Cc3ccc(Cl)cc3)CC2CN(C)C)c1.Cl (stereo not drawn) [FWBH11, hydrochloride]  inhibition at 1 µM             %          50.9
5  COc1cccc(C2(O)CCN(S(=O)(=O)Cc3ccccc3F)CC2CN(C)C)c1.Cl (stereo not drawn) [FWBH14, hydrochloride]  inhibition at 1 µM             %          40.8

For CN(C)CC1CN(S(=O)(=O)Cc2ccccc2)CCC1(O)c1cccc(OC(F)(F)F)c1.Cl (stereo not drawn) [hydrochloride] , what is its reported inhibition at 1 µM?
40.8
